// each record: one item and its Ki for UniProtKB P00742
Just the number in nM, nothing appended.

>  <smilesStr>
CN(C)CCN(c1ccncc1)c1ccc(-c2ccc3c(C(N)=O)nn(-c4ccc5onc(N)c5c4)c3c2F)c(F)c1

>  <Ki [nM]>
4.9

$$$$

Could you share which Ki value was measured for `CN(C)CCCN(c1ccncc1)c1ccc(-c2ccc3c(C(N)=O)nn(-c4ccc5onc(N)c5c4)c3c2F)c(F)c1` ? 5.2

Moving on to the next compound: `CN(C)Cc1ccccc1-c1ccc(-c2ccc3c(C(N)=O)nn(-c4ccc5onc(N)c5c4)c3c2F)c(F)c1` 8.1

Moving on to the next compound: `CN(C)Cc1cnccc1-c1ccc(-c2ccc3c(C(N)=O)nn(-c4ccc5onc(N)c5c4)c3c2F)c(F)c1` 3

---

Biological target: Coagulation factor X (Homo sapiens, UniProt P00742)
Sequence (P00742 41-179 limits assumed): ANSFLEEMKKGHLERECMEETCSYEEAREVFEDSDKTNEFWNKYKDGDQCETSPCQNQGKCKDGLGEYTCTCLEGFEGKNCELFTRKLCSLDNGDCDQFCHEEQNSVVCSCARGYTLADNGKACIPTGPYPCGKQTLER
Sequence (P00742 235-488 limits assumed): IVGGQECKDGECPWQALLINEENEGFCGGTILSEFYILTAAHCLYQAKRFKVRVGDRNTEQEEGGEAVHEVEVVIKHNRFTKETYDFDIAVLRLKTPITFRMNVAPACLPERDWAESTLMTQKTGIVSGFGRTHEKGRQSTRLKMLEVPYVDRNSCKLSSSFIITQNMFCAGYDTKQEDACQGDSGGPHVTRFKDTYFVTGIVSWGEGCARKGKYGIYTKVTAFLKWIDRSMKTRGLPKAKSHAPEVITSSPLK
testReadout: Ki (nM)
Just the number in nM, nothing appended.

Recorded results for 5 molecules are shown here.
>  <smilesStr>
CN(c1ccncc1)c1ccc(-c2ccc3c(C(N)=O)nn(-c4ccc5onc(N)c5c4)c3c2F)c(F)c1

>  <valueUnit>
nM

>  <resultValue>
4.1

$$$$
>  <smilesStr>
CN(C)CCN(c1cccnc1)c1ccc(-c2ccc3c(C(N)=O)nn(-c4ccc5onc(N)c5c4)c3c2F)c(F)c1

>  <valueUnit>
nM

>  <resultValue>
231

$$$$
>  <smilesStr>
NC(=O)c1nn(-c2ccc3onc(N)c3c2)c2c(F)c(-c3ccc(N4CCCCC4=O)cc3F)ccc12

>  <valueUnit>
nM

>  <resultValue>
6.4

$$$$
>  <smilesStr>
Cc1nn(-c2cccc(CN)c2)c2c(F)c(-c3ccc(N4CCCC4=O)cc3)ccc12

>  <valueUnit>
nM

>  <resultValue>
223

$$$$
>  <smilesStr>
CN(C)Cc1[nH]ncc1-c1ccc(-c2ccc3c(C(N)=O)nn(-c4ccc5onc(N)c5c4)c3c2F)c(F)c1

>  <valueUnit>
nM

>  <resultValue>
1.4

$$$$

The record that follows has no Ki shown yet.
Could you share which Ki value was measured for `CN(C)Cc1cccnc1-c1ccc(-c2ccc3c(C(N)=O)nn(-c4ccc5onc(N)c5c4)c3c2F)c(F)c1` ? 2260

---

Assay: Apparent permeability across Caco-2 cells
Type: ADME, cell-based
Settings: human
testReadout: Papp
Please don't drop the unit; write it after the number.

>  <smilesStr>
CN(C)CCCN(c1ccncc1)c1ccc(-c2ccc3c(C(N)=O)nn(-c4ccc5onc(N)c5c4)c3c2F)c(F)c1

>  <testReadout>
Papp

>  <resultValue>
5.5 ×10⁻⁶ cm/s

$$$$
>  <smilesStr>
CN(c1ccncc1)c1ccc(-c2ccc3c(C(N)=O)nn(-c4ccc5onc(N)c5c4)c3c2F)c(F)c1

>  <testReadout>
Papp

>  <resultValue>
1.4 ×10⁻⁶ cm/s

$$$$
>  <smilesStr>
CN(C)Cc1cnccc1-c1ccc(-c2ccc3c(C(N)=O)nn(-c4ccc5onc(N)c5c4)c3c2F)c(F)c1

>  <testReadout>
Papp

>  <resultValue>
6.69 ×10⁻⁶ cm/s

$$$$
>  <smilesStr>
CN(C)Cc1[nH]ncc1-c1ccc(-c2ccc3c(C(N)=O)nn(-c4ccc5onc(N)c5c4)c3c2F)c(F)c1

>  <testReadout>
Papp

>  <resultValue>
1.1 ×10⁻⁶ cm/s

$$$$
>  <smilesStr>
CN(C)Cc1ccccc1-c1ccc(-c2ccc3c(C(N)=O)nn(-c4ccc5onc(N)c5c4)c3c2F)c(F)c1

>  <testReadout>
Papp

>  <resultValue>
3.76 ×10⁻⁶ cm/s

$$$$

Could you share which Papp value was measured for `CN(C)Cc1nccn1-c1ccc(-c2ccc3c(C(N)=O)nn(-c4ccc5onc(N)c5c4)c3c2F)c(F)c1` ? 2.03 ×10⁻⁶ cm/s

Moving on to the next compound: `CN(C)Cc1ncccc1-c1ccc(-c2ccc3c(C(N)=O)nn(-c4ccc5onc(N)c5c4)c3c2F)c(F)c1` 1.04 ×10⁻⁶ cm/s

Moving on to the next compound: `NC(=O)c1nn(-c2ccc3onc(N)c3c2)c2c(F)c(-c3ccc(N4CCCCC4=O)cc3F)ccc12` 3.04 ×10⁻⁶ cm/s

---

Experiment: Inhibition of human alpha thrombin
pKi: −log10 of the molar value.
Reported pKi is given for each of the following compounds.

Could you share which pKi value was measured for `N#Cc1cnc(NCC(F)(F)c2ccccn2)c(=O)n1CC(=O)NCc1ncccc1F` ? 8.64

Moving on to the next compound: `CN(C)Cc1[nH]ncc1-c1ccc(-c2ccc3c(C(N)=O)nn(-c4ccc5onc(N)c5c4)c3c2F)c(F)c1` < 4.82

Moving on to the next compound: `CN(C)CCCN(c1ccncc1)c1ccc(-c2ccc3c(C(N)=O)nn(-c4ccc5onc(N)c5c4)c3c2F)c(F)c1` < 4.82

Moving on to the next compound: `Cc1nn(-c2cccc(CN)c2)c2c(F)c(-c3ccc(N4CCCCC4=O)cc3)ccc12` < 4.82
